target: Cytochrome P450 1A2 (Homo sapiens); experiment: Cytochrome panel assay with activity outcomes; conditions: recombinant CYP, pro-luciferin dealkylation, luminescence, p450-cyp1a2; series mostly up to 57.1 µM
Screen size: about 16,000 compounds; about 5,700 (36%) were called active. Not shown: some 24% with an inconclusive outcome. Calls follow the shape of the dose curve; as a rule, active = well fitted curve in the direction sought with a large enough effect; inconclusive = small, poorly fitted or top-dose-only effect, or effect the other way; inactive = no such curve, though single readings can be large or run the other way. This is one part of the list.
Outcome codes: active, inactive

compound	label-class
Cc1ccccc1OC1C(=O)N(Cc2ccc3c(c2)OCO3)C1c1sccc1C (stereo not given)	active
O=C(Nc1cccc(F)c1)/C(=C\c1ccco1)NC(=O)c1cccs1	active
COc1cccc(Nc2ncc3ncc(=O)n(CCC#N)c3n2)c1	active
C/C(CC(=O)NCc1ccco1)=N\NC(=O)Cc1ccccc1	inactive
C=CCNC(=O)/C(=C\C=C\c1ccccc1)NC(=O)c1ccc(OCCCC)cc1	inactive
